Molecular target: panel of 442 kinases (Homo sapiens, UniProt Q9UKE5)
Construct: purchased KINOMEscan
Sequence (Q9UKE5 whole entry): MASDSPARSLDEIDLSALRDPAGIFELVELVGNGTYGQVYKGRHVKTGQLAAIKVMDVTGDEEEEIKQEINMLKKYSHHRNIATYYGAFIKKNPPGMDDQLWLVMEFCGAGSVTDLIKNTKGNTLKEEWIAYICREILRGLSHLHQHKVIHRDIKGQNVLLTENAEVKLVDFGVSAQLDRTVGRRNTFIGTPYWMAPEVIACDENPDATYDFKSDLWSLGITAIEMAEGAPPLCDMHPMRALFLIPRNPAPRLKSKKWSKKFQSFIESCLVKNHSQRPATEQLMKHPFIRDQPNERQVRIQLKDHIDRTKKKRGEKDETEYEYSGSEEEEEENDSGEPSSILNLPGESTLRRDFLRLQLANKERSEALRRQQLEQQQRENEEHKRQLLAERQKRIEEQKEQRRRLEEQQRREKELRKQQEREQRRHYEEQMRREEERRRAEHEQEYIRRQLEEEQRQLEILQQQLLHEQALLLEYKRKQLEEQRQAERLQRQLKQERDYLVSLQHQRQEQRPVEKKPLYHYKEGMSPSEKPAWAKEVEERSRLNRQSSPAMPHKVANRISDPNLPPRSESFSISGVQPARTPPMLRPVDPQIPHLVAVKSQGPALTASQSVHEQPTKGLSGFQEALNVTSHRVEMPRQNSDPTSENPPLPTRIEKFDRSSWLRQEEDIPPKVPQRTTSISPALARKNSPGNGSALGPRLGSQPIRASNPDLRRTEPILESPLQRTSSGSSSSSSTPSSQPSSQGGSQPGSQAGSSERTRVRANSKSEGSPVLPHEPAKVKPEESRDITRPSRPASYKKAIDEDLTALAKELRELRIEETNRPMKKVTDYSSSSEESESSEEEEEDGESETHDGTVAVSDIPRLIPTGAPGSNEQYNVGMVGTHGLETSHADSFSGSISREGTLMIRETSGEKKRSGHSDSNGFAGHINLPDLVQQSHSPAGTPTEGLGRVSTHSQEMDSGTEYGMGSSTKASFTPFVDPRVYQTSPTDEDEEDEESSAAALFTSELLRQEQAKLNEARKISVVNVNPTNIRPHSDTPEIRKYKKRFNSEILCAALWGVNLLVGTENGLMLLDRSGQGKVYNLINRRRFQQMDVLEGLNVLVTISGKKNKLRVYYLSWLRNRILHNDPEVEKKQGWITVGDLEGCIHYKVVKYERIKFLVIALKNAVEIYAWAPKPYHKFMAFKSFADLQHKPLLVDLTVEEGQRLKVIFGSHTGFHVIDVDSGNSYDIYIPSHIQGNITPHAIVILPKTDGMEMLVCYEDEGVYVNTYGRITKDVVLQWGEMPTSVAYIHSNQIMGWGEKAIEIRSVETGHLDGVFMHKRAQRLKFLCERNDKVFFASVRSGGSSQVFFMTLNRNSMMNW
Assay type: binding
Details: kinase TNIK; compound concentration 10 µM
Catalogue of molecules with associated % Ctrl, TNIK
State just the number; it will be interpreted in % Ctrl.

Worked examples, 3 molecules total:
[
  {
    "Molecule": "COc1cc(C(=O)N2CCC(N3CCN(C)CC3)CC2)ccc1Nc1ncc2c(n1)N1CCc3cccc(c31)C(=O)N2C [Compound 24]",
    "Assayed Target": "panel of 442 kinases (Homo sapiens, UniProt Q9UKE5)",
    "Recorded Measurement": 56
  },
  {
    "Molecule": "COc1cc(C(=O)N2CCC(N3CCN(C)CC3)CC2)ccc1Nc1ncc2c(n1)N(C1CCCC1)c1ccccc1C(=O)N2C [Compound 25]",
    "Assayed Target": "panel of 442 kinases (Homo sapiens, UniProt Q9UKE5)",
    "Recorded Measurement": 100
  },
  {
    "Molecule": "COc1cc(C(=O)N2CCC(N3CCN(C)CC3)CC2)ccc1Nc1ncc2c(n1)N(C)c1ccccc1C(=O)N2C [15 (LRRK2-IN-1)]",
    "Assayed Target": "panel of 442 kinases (Homo sapiens, UniProt Q9UKE5)",
    "Recorded Measurement": 100
  }
]

Shifting focus to the molecule that follows.
Q. State its % Ctrl, TNIK for this molecule: CCOc1cc(C(=O)N2CCC(N3CCN(C)CC3)CC2)ccc1Nc1ncc2c(n1)N(C1CCCC1)c1ccccc1C(=O)N2C [Compound 26]
A. 94

---

Molecular target: panel of 442 kinases (Homo sapiens, UniProt Q07912)
Construct: purchased KINOMEscan
Sequence (Q07912 whole entry): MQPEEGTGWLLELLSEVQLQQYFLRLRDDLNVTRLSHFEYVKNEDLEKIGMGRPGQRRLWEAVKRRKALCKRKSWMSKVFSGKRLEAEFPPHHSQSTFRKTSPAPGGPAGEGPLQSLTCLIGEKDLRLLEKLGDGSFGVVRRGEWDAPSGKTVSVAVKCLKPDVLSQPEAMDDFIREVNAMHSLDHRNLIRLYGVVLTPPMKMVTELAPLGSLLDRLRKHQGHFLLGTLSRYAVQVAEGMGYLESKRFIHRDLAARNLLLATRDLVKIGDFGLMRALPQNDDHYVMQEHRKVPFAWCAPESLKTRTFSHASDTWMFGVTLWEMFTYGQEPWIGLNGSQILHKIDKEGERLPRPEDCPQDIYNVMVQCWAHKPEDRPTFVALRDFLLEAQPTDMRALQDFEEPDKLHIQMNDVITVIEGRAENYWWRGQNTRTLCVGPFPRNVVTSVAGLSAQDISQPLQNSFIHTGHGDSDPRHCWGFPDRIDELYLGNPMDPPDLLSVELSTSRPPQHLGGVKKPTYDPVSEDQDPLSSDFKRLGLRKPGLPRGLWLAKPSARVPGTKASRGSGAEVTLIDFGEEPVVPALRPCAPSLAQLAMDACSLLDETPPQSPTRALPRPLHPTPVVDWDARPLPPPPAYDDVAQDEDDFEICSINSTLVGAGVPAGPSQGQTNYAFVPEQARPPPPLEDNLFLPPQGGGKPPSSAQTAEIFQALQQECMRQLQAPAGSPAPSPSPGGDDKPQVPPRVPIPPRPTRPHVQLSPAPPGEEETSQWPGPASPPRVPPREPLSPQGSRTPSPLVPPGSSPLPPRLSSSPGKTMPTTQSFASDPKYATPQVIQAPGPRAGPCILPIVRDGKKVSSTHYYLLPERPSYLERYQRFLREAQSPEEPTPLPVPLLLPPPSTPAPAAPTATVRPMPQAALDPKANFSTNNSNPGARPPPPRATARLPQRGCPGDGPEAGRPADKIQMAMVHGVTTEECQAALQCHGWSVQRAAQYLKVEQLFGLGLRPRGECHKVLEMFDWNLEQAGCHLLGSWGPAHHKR
Type: binding
Details: kinase TNK2; compound concentration 10 µM
Listed here: items and their measured % Ctrl, TNK2.
Include the unit after the number when you answer.

[
  {
    "Smiles Structure": "CCOc1cc(C(=O)N2CCC(N3CCN(C)CC3)CC2)ccc1Nc1ncc2c(n1)N(C1CCCC1)c1ccccc1C(=O)N2C",
    "% Ctrl, TNK2": "80 % Ctrl"
  }
]

Q. Answer with the recorded % Ctrl, TNK2 for the molecule listed here: `COc1cc(C(=O)N2CCC(N3CCN(C)CC3)CC2)ccc1Nc1ncc2c(n1)N(C)c1ccccc1C(=O)N2C`
A. 18 % Ctrl

Q. Return % Ctrl, TNK2 (reported value) for this molecule: `COc1cc(C(=O)N2CCC(N3CCN(C)CC3)CC2)ccc1Nc1ncc2c(n1)N1CCc3cccc(c31)C(=O)N2C`
A. 43 % Ctrl

Q. Please list % Ctrl, TNK2 recorded for the molecule `COc1cc(C(=O)N2CCC(N3CCN(C)CC3)CC2)ccc1Nc1ncc2c(n1)N(C1CCCC1)c1ccccc1C(=O)N2C`
A. 35 % Ctrl

---

Molecular target: panel of 442 kinases (Homo sapiens)
Construct: purchased KINOMEscan
Format: binding
Conditions: kinase TRKA; compound concentration 10 µM
Reported % Ctrl, TRKA by item:
Numeric answer only, unit % Ctrl assumed.

[
  {
    "Compound": "COc1cc(C(=O)N2CCC(N3CCN(C)CC3)CC2)ccc1Nc1ncc2c(n1)N(C1CCCC1)c1ccccc1C(=O)N2C [Compound 25]",
    "Units Text": "% Ctrl",
    "% Ctrl, TRKA": 78
  },
  {
    "Compound": "COc1cc(C(=O)N2CCC(N3CCN(C)CC3)CC2)ccc1Nc1ncc2c(n1)N(C)c1ccccc1C(=O)N2C [15 (LRRK2-IN-1)]",
    "Units Text": "% Ctrl",
    "% Ctrl, TRKA": 69
  },
  {
    "Compound": "CCOc1cc(C(=O)N2CCC(N3CCN(C)CC3)CC2)ccc1Nc1ncc2c(n1)N(C1CCCC1)c1ccccc1C(=O)N2C [Compound 26]",
    "Units Text": "% Ctrl",
    "% Ctrl, TRKA": 100
  }
]

Q. # return recorded % Ctrl, TRKA for entry COc1cc(C(=O)N2CCC(N3CCN(C)CC3)CC2)ccc1Nc1ncc2c(n1)N1CCc3cccc(c31)C(=O)N2C [Compound 24]
A. 93
